Hey, just so you know, these numbers are from the supplement of paper PMC3545927.

Biological target: furin, P09958;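 also: purified furin at 1:10 enzyme:substrate in 50 mM HEPES pH 7.5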
Sequence (P09958 whole entry): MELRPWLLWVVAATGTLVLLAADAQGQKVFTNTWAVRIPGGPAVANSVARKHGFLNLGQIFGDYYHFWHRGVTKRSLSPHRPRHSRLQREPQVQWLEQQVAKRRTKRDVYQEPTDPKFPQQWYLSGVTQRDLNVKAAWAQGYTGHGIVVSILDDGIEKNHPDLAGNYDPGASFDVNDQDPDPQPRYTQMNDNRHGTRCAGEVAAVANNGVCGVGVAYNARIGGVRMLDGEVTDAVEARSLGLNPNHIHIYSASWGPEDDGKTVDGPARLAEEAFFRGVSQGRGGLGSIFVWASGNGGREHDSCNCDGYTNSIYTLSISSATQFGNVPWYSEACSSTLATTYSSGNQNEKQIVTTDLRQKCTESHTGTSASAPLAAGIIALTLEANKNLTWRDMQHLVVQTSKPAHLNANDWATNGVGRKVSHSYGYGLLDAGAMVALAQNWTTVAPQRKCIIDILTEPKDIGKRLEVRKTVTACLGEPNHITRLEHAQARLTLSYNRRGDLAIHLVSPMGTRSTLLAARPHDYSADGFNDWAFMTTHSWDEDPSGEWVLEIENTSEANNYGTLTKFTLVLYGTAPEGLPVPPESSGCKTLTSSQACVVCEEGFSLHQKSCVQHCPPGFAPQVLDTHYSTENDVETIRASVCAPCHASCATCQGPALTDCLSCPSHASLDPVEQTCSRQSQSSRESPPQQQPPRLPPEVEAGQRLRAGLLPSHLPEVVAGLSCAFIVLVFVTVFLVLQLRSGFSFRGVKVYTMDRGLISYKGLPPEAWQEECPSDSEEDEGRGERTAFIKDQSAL
Assay: furin cleavage Z-score vs untreated control; higher = more cleavage, active = 3.5 or more, inactive = 1 or less, 8 variable residues between constant flanks
Settings: 30 min
Some of the results follow. The true hit rate is not given.

biopolymer_sequence	furin cleavage Z-score
CARRTRFISLAGNASASA [FS-2601]	1.87
CARRRRELDPAGNASASA [FS-2076]	8.52
CADVVVVATDAGNASASA [HC876]	-0.463
CARRRRQLDPAGNASASA [FS-2598]	7.56
CARRTRSRSPAGNASASA [FS-2521]	4.49
CARLARNVKEAGNASASA [FS-2984]	5.68
CATGPCTPLPAGNASASA [HC1194]	0.602
